target: Trace amine-associated receptor 1 (Rattus norvegicus) (UniProt Q923Y9); experiment: Activation of rat wild type TAAR1 expressed in HEK293 cells assessed as stimulation of cAMP production at 0.0001 to 100 uM after 1 hr by chemiluminescent assay relative to beta-phenylethylamine; format: functional, cell-based
Sequence (Q923Y9 whole entry): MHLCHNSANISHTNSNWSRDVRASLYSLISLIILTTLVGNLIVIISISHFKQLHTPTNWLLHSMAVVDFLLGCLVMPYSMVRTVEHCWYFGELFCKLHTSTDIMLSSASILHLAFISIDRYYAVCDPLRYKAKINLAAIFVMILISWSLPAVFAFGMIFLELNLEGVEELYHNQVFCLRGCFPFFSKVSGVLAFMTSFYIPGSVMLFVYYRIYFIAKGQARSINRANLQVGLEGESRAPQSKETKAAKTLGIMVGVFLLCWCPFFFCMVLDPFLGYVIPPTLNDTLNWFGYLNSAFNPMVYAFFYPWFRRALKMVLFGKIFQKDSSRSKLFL
So I've got a bunch of molecules here, and I need their Emax values.
Give bare numbers, in %.

Here are 3 molecules together with their reported answers.
• C[C@H](N)Cc1ccccc1 = 102
• CN[C@H](C)Cc1ccccc1 = 82.5
• C[C@@H](N)Cc1ccccc1 = 86.7

Attention now shifts to the item below.
Recorded result, `CN[C@@H](C)Cc1ccccc1` , Emax: 94.3

====

So I've got a bunch of molecules here, and I need their Emax values.
test system: Trace amine-associated receptor 1 (Rattus norvegicus), Q923Y9 [N287Y]; assay: Activation of rat TAAR1 transmembrane domain 7 Asn287(7.39)Tyr mutant expressed in HEK293 cells assessed as stimulation of cAMP production at 0.0001 to 100 uM after 1 hr by chemiluminescent assay relative to beta-phenylethylamine; type: functional, cell-based
One number for each entry, in %.

Here are 3 molecules together with their reported answers.
• CN[C@@H](C)Cc1ccccc1 = 101
• C[C@H](N)Cc1ccccc1 = 103
• C[C@@H](N)Cc1ccccc1 = 95.8

Attention now shifts to the item below.
Recorded result, `CN[C@H](C)Cc1ccccc1` , Emax: 93.3

====

tested on: Trace amine-associated receptor 1 (Rattus norvegicus), Q923Y9 [M268T]; assay: Activation of rat TAAR1 transmembrane domain 6 Met268(6.55)Thr mutant expressed in HEK293 cells assessed as stimulation of cAMP production at 0.0001 to 100 uM after 1 hr by chemiluminescent assay relative to beta-phenylethylamine; type: functional, cell-based
Sequence (Q923Y9 whole entry M268T, the tested form may be a part): as the sequence (Q923Y9 whole entry) above, with M268T counted along it
So I've got a bunch of compounds here, and I need their Emax values.
Answers are plain numbers, in %.

Here are 3 compounds together with their reported answers.
• C[C@H](N)Cc1ccccc1 = 93.8
• C[C@@H](N)Cc1ccccc1 = 91.6
• CN[C@H](C)Cc1ccccc1 = 77.6

Attention now shifts to the item below.
Recorded result, `CN[C@@H](C)Cc1ccccc1` , Emax: 94.3

====

target: Trace amine-associated receptor 1 (Mus musculus, UniProt Q923Y8); assay: Activation of mouse wild type TAAR1 expressed in HEK293 cells assessed as stimulation of cAMP production after 1 hr by chemiluminescent assay
Sequence (Q923Y8 whole entry): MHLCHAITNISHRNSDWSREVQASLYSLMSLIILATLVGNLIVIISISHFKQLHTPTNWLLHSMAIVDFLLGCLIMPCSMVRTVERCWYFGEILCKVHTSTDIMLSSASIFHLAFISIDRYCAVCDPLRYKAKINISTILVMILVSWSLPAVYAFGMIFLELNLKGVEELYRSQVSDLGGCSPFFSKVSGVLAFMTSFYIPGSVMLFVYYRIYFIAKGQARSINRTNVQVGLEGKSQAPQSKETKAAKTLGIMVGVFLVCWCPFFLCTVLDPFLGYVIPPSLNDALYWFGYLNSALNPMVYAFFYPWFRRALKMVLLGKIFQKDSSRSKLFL
So I've got a bunch of compounds here, and I need their pEC50 values.
One number for each entry, as −log10 of the molar value.

Here are 3 compounds together with their reported answers.
- C[C@H](N)Cc1ccccc1 [DEXTROAMPHETAMINE]: 7.07
- CN[C@@H](C)Cc1ccccc1 [METHAMPHETAMINE]: 6.55
- NCCc1ccccc1 [PHENETHYLAMINE]: 6.72

Recorded result, `CN[C@H](C)Cc1ccccc1` , pEC50: 6.07

====

molecular target: Trace amine-associated receptor 1 (Rattus norvegicus, UniProt Q923Y9, N287Y); experiment: Activation of rat TAAR1 transmembrane domain 7 Asn287(7.39)Tyr mutant expressed in HEK293 cells assessed as stimulation of cAMP production after 1 hr by chemiluminescent assay
Sequence (Q923Y9 whole entry N287Y, the tested form may be a part): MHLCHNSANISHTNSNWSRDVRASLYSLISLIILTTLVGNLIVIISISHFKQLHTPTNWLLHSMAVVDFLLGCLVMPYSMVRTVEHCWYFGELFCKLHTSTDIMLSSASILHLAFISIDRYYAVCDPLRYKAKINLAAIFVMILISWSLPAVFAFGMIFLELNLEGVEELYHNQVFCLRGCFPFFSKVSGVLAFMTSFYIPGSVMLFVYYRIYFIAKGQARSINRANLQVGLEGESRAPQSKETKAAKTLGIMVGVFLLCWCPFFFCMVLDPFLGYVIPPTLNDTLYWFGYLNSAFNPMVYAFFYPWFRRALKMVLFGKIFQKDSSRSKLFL
So I've got a bunch of compounds here, and I need their pEC50 values.
Give bare numbers, as −log10 of the molar value.

Here are 2 compounds together with their reported answers.
• NCCc1ccccc1 = 6.77
• CN[C@@H](C)Cc1ccccc1 = 6.70

Attention now shifts to the item below.
Fill in: Trace amine-associated receptor 1 (Rattus norvegicus, UniProt Q923Y9, N287Y) pEC50 for `CN[C@H](C)Cc1ccccc1` = 6.48

====

target: Trace amine-associated receptor 1 (Mus musculus, UniProt Q923Y8, T268M); test: Activation of mouse TAAR1 transmembrane domain 6 Thr268(6.55)Met mutant expressed in HEK293 cells assessed as stimulation of cAMP production after 1 hr by chemiluminescent assay
Sequence (Q923Y8 whole entry T268M, the tested form may be a part): as the sequence (Q923Y8 whole entry) above, with T268M counted along it
So I've got a bunch of compounds here, and I need their pEC50 values.
Give bare numbers, as −log10 of the molar value.

* CN[C@H](C)Cc1ccccc1 | 6.90

Can you give me pEC50 for all of these, one by one?
1. C[C@@H](N)Cc1ccccc1 [LEVAMFETAMINE]
2. C[C@H](N)Cc1ccccc1 [DEXTROAMPHETAMINE]
3. CN[C@@H](C)Cc1ccccc1 [METHAMPHETAMINE]

# output
1: 6.92; 2: 8.40; 3: 7.75

Recorded result, NCCc1ccccc1 [PHENETHYLAMINE] , pEC50: 7.33

====

test system: Trace amine-associated receptor 1 (Mus musculus), Q923Y8 [Y287N]; test: Activation of mouse TAAR1 transmembrane domain 7 Tyr287(7.39)Asn mutant expressed in HEK293 cells assessed as stimulation of cAMP production at 0.0001 to 100 uM after 1 hr by chemiluminescent assay relative to beta-phenylethylamine; assay type: functional, cell-based
Sequence (Q923Y8 whole entry Y287N, the tested form may be a part): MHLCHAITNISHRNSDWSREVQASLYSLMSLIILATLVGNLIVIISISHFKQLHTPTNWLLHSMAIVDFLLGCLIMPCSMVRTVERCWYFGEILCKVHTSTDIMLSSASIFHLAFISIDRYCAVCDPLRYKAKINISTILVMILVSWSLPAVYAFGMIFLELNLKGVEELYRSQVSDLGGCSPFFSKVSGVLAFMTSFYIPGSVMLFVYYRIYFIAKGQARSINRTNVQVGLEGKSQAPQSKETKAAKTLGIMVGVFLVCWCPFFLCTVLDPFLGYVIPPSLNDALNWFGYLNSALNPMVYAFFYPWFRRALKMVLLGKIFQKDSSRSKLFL
property.label: Emax (%)
Answers are plain numbers, in %.

• CN[C@H](C)Cc1ccccc1 = 89.6
• CN[C@@H](C)Cc1ccccc1 = 92.2
• C[C@@H](N)Cc1ccccc1 = 89.4

Attention now shifts to the item below.
Recorded result, `C[C@H](N)Cc1ccccc1` , Emax: 93

====

So I've got a bunch of compounds here, and I need their pEC50 values.
target: Trace amine-associated receptor 1 (Rattus norvegicus, UniProt Q923Y9, M268T); experiment: Activation of rat TAAR1 transmembrane domain 6 Met268(6.55)Thr mutant expressed in HEK293 cells assessed as stimulation of cAMP production after 1 hr by chemiluminescent assay
Sequence (Q923Y9 whole entry M268T, the tested form may be a part): as the sequence (Q923Y9 whole entry) above, with M268T counted along it
Answers are plain numbers, as −log10 of the molar value.

Here are 2 compounds together with their reported answers.
* CN[C@@H](C)Cc1ccccc1 | 5.69
* CN[C@H](C)Cc1ccccc1 | 5.96

Fill in: Trace amine-associated receptor 1 (Rattus norvegicus, UniProt Q923Y9, M268T) pEC50 for `NCCc1ccccc1` = 6.58

====

molecular target: Trace amine-associated receptor 1 (Mus musculus, UniProt Q923Y8, Y287N); assay: Activation of mouse TAAR1 transmembrane domain 7 Tyr287(7.39)Asn mutant expressed in HEK293 cells assessed as stimulation of cAMP production after 1 hr by chemiluminescent assay
So I've got a bunch of compounds here, and I need their log10 EC50 values.
Please be aware that the numbers have been log10-transformed from EC50 in nM.

Here are 4 compounds together with their reported answers.
* C[C@H](N)Cc1ccccc1 | 2.34
* NCCc1ccccc1 | 1.77
* CN[C@H](C)Cc1ccccc1 | 3.20
* C[C@@H](N)Cc1ccccc1 | 2.02

Attention now shifts to the item below.
Recorded result, `CN[C@@H](C)Cc1ccccc1` , log10 EC50: 3.26

====

target: Trace amine-associated receptor 1 (Rattus norvegicus); assay: Activation of rat wild type TAAR1 expressed in HEK293 cells assessed as stimulation of cAMP production after 1 hr by chemiluminescent assay
property.label: pEC50
Give bare numbers, as −log10 of the molar value.

• CN[C@@H](C)Cc1ccccc1 = 6.88

Recorded result, `NCCc1ccccc1` , pEC50: 7.39

====

test system: Trace amine-associated receptor 1 (Mus musculus), Q923Y8 [T268M]; experiment: Activation of mouse TAAR1 transmembrane domain 6 Thr268(6.55)Met mutant expressed in HEK293 cells assessed as stimulation of cAMP production at 0.0001 to 100 uM after 1 hr by chemiluminescent assay relative to beta-phenylethylamine; type: functional, cell-based
Sequence (Q923Y8 whole entry T268M, the tested form may be a part): as the sequence (Q923Y8 whole entry) above, with T268M counted along it
property.label: Emax
Give the number first and the unit second.

Here are 2 compounds together with their reported answers.
- C[C@H](N)Cc1ccccc1: 98%
- CN[C@H](C)Cc1ccccc1: 91.5%

Can you give me Emax for all of these, one by one?
1. C[C@@H](N)Cc1ccccc1
2. CN[C@@H](C)Cc1ccccc1

# output
90.5%
94%

====

So I've got a bunch of compounds here, and I need their Emax values.
molecular target: Trace amine-associated receptor 1 (Mus musculus) (UniProt Q923Y8); test: Activation of mouse wild type TAAR1 expressed in HEK293 cells assessed as stimulation of cAMP production at 0.0001 to 100 uM after 1 hr by chemiluminescent assay relative to beta-phenylethylamine; type: functional, cell-based
Sequence (Q923Y8 whole entry): as the sequence (Q923Y8 whole entry) above
Give bare numbers, in %.

Here are 2 compounds together with their reported answers.
• CN[C@H](C)Cc1ccccc1 = 96.9
• CN[C@@H](C)Cc1ccccc1 [METHAMPHETAMINE] = 98

Can you give me Emax for all of these, one by one?
1. C[C@H](N)Cc1ccccc1 [DEXTROAMPHETAMINE]
2. C[C@@H](N)Cc1ccccc1 [LEVAMFETAMINE]

# output
1. 99.8
2. 93.6

These measurements were taken from ChEMBL document CHEMBL3108730.
